molecular target: D(1A) dopamine receptor (Homo sapiens); experiment: Antagonist of Human D 1 Dopamine Receptor: qHTS; conditions: HEK293 TREx D1 cells, calcium flux, dopamine EC80; at 10 µM; hits give low values; further: on the % scale 0 is the no-effect control and ±100 the full control effect
Among all 360,000 compounds or so, about 11,000 (3.1%) were called active. This excerpt belongs to a sample that is enriched for actives.
Answer each item with its documented activity change, negative = inhibition.
Give bare numbers, in %.

{"Compound": "CCOC(=O)c1cc(-c2ccc(OC)c(S(=O)(=O)Nc3ccc(OC)cc3OC)c2)on1", "Unit Of Measurement": "%", "activity change, negative = inhibition": -13.6}
{"Compound": "CCCCn1cc(S(=O)(=O)c2ccc(OCC)cc2)c(=O)c2cc(OC)c(OC)cc21", "Unit Of Measurement": "%", "activity change, negative = inhibition": 4.22}
{"Compound": "O=C(NCCc1csc(-c2ccc(C(F)(F)F)cc2)n1)C(=O)Nc1ccc(F)c(Cl)c1", "Unit Of Measurement": "%", "activity change, negative = inhibition": -0.398}
{"Compound": "O=C(c1cc(-c2ccc(Cl)cc2)on1)N1CCN(c2ccccc2)CC1", "Unit Of Measurement": "%", "activity change, negative = inhibition": 8.05}
{"Compound": "O=C(Cn1c(=O)nc(-c2ccccc2)c2cc(Cl)ccc21)NCc1ccc(Cl)cc1", "Unit Of Measurement": "%", "activity change, negative = inhibition": 7.3}

Give activity change, negative = inhibition for all compounds that follow.
1. O=C(CN1c2ccccc2S(=O)(=O)c2ccccc21)Nc1cccc(C(F)(F)F)c1
2. COc1ccc(CNc2nc(-c3ccc(Cl)cc3)nn2C(=O)c2ccccc2)cc1
3. Cc1ccc(NC(=O)Nc2sc3nc4n(c(=O)c3c2C)CCC(C)CC4)c(Cl)c1 (stereo not drawn)
4. COc1ccc(N2CCN(CCNC(=O)CCN3C(=O)COc4ccccc43)CC2)cc1
5. Cc1nn(-c2ccccc2)c(Cl)c1/C=C/C(=O)c1ccc(O)cc1
6. CCOc1ccc(CNC(=O)c2ccc3c(c2)nnn3C2CCCC2)cc1
7. CCOC(=O)c1cccc(NC(=O)Cn2cnc3nc4c(cc3c2=O)CCCC4)c1
8. O=C(/C=C/c1ccc(Cl)cc1)N1CCN(c2ccccc2[N+](=O)[O-])CC1

Solution:
-3.23
-0.876
10.9
2.07
-19.2
-28.9
17.9
-7.39

// each compound listed below needs its activity change, negative = inhibition
1. CC1=C(c2ccc(Cl)cc2)S(=O)(=O)N=C1N1CCN(c2cc(C)ccc2C)CC1
2. CN1CCN(CCNC(=O)Nc2ccc([N+](=O)[O-])cc2)CC1

Solution:
1: 3.21; 2: -6.04

----------
target: D(1A) dopamine receptor (Homo sapiens) (UniProt P21728); assay: Antagonist of Human D 1 Dopamine Receptor: qHTS; settings: HEK293 TREx D1 cells, calcium flux, dopamine EC80; at 10 µM; further: on the % scale 0 is the no-effect control and ±100 the full control effect
Sequence (P21728 whole entry, looked up): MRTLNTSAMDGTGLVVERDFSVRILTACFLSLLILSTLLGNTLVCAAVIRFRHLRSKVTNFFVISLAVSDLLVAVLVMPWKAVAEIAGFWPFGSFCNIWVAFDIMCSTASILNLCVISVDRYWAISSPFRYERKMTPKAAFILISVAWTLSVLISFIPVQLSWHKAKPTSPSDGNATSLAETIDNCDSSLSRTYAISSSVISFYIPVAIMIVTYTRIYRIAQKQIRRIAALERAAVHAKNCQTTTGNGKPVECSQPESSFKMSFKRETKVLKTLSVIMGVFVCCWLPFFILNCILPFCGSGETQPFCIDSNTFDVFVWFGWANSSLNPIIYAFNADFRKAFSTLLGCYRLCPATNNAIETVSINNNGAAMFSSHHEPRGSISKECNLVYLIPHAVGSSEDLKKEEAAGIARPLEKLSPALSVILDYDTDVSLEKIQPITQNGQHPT
Among all 360,000 compounds or so, about 11,000 (3.1%) were called active. No stated cut-off is given here; in the data, active means activity change below about -30%; inactive means the rest. The sample as a whole holds a higher share of actives than the screen did.
The reply should be one of these categories: active, inactive

{"Smiles Entry": "COc1ccc(O)c(C(=O)c2cnc3onc(C(C)C)c3c2)c1", "Assay Target": "D(1A) dopamine receptor (Homo sapiens) (UniProt P21728)", "Label Value": "active"}
{"Smiles Entry": "CCOC(=O)CSc1nnc(CNc2nc(-c3ccccc3)cs2)n1C", "Assay Target": "D(1A) dopamine receptor (Homo sapiens) (UniProt P21728)", "Label Value": "active"}
{"Smiles Entry": "CCN(CC(=O)Nc1ccc(S(=O)(=O)N2CCCC2)cc1)CC(=O)Nc1cccc(OC)c1", "Assay Target": "D(1A) dopamine receptor (Homo sapiens) (UniProt P21728)", "Label Value": "inactive"}
{"Smiles Entry": "COc1ccc(-c2[nH]c3c(c2-c2c(-n4cccc4)n(C)c(=O)n(C)c2=O)c(=O)n(C)c(=O)n3C)cc1", "Assay Target": "D(1A) dopamine receptor (Homo sapiens) (UniProt P21728)", "Label Value": "inactive"}

Exercise: Dear colleague, could you share the recorded outcome for O=C(CN1C(=O)NC2(CCCC2)C1=O)OCCOc1ccc(F)cc1 when you have a moment?
Solution: inactive

Exercise: Just curious, what result did CC1(C)NC(=O)N(CCOc2cccc(Oc3ccccc3)c2)C1=O get here?
Solution: inactive

----------
target: D(1A) dopamine receptor (Homo sapiens); experiment: Antagonist of Human D 1 Dopamine Receptor: qHTS; settings: HEK293 TREx D1 cells, calcium flux, dopamine EC80; at 10 µM; further: on the % scale 0 is the no-effect control and ±100 the full control effect
About 11,000 (3.1%) of roughly 360,000 compounds were called active. No stated cut-off is given here; in the data, active means activity change below about -30%; inactive means the rest. This excerpt belongs to a sample that is enriched for actives.
Respond using exactly one of the listed classes: Yes (active), No (inactive)

{"Smiles Entry": "Cn1nc(-c2ccccc2)c(-c2ccccc2)c(C(=O)Nc2ccc(S(N)(=O)=O)cc2)c1=O", "Label Value": "No"}
{"Smiles Entry": "O=C(NCc1ccc(Cl)cc1)c1cc(=O)nc2sc(-c3ccccc3)nn12", "Label Value": "No"}

Exercise: Please state the recorded outcome for this compound: O=C(NCc1ccco1)c1sc2cccc(F)c2c1Cl
Solution: Yes

----------
Provide the reported activity change, negative = inhibition of each item.
target: D(1A) dopamine receptor (Homo sapiens); assay: Antagonist of Human D 1 Dopamine Receptor: qHTS; settings: HEK293 TREx D1 cells, calcium flux, dopamine EC80; at 10 µM; hits give low values; further: on the % scale 0 is the no-effect control and ±100 the full control effect
About 11,000 (3.1%) of roughly 360,000 compounds were called active. The sample as a whole holds a higher share of actives than the screen did.
Numbers only, in %.

{"Molecule": "O=C(COC(=O)c1cnc(Cl)c(Cl)c1)NCc1ccco1", "Unit Of Measurement": "%", "Observed Result": -8.31}
{"Molecule": "Cc1ccc(Cl)cc1NC(=O)Cc1ccc(-n2c(C)nc3cccnc32)cc1", "Unit Of Measurement": "%", "Observed Result": 13}
{"Molecule": "CN1CCN(S(=O)(=O)c2ccc(NC(=O)C3CCCO3)cc2)CC1 (stereo not drawn)", "Unit Of Measurement": "%", "Observed Result": -2.7}
{"Molecule": "Cc1cccc(OCC(=O)Nc2ccccc2F)c1", "Unit Of Measurement": "%", "Observed Result": -0.963}
{"Molecule": "CCOC(=O)C1CCCN(C(=O)c2ccc(C)c(S(=O)(=O)N3CCCCC3)c2)C1 (stereo not drawn)", "Unit Of Measurement": "%", "Observed Result": -1.15}
{"Molecule": "CCc1ccc(C(=O)COC(=O)c2ccco2)cc1", "Unit Of Measurement": "%", "Observed Result": 3.84}
{"Molecule": "COc1ccc(C(CCNCc2ccccc2F)c2ccc(F)cc2)cc1 (stereo not drawn)", "Unit Of Measurement": "%", "Observed Result": -7.29}
{"Molecule": "COC(=O)c1ccc(NC(=O)c2cnn(-c3ccc(Cl)cc3)c2C2CCN(C(=O)OC(C)(C)C)CC2)cc1", "Unit Of Measurement": "%", "Observed Result": 8.43}
{"Molecule": "CC(Nc1ccc(-c2nc(-c3ccco3)no2)cc1[N+](=O)[O-])c1ccccc1 (stereo not drawn)", "Unit Of Measurement": "%", "Observed Result": -5.4}
{"Molecule": "CCN1CCCC1CNC(=O)Cn1cnc2ccc(S(=O)(=O)N3CCC(C)CC3)cc2c1=O (stereo not drawn)", "Unit Of Measurement": "%", "Observed Result": -45}

Give activity change, negative = inhibition for each of the items listed below.
1. Cc1ccc(Cn2c(C)c3cnn(CC(=O)NCc4ccccc4)c(=O)c3c2C)cc1
2. CCOC(=O)C(Cc1ccccc1)NC(=O)CCc1c(C)nc2c(c(C)nn2-c2ccc(C)c(C)c2)c1C (stereo not drawn)
3. COCCNCCOCCOc1cccc(OC)c1
4. O=C(c1cnn(-c2ccc(F)cc2)c1-n1cccc1)N1CCN(c2ccc(F)cc2)CC1
5. CCOC(=O)N1CCc2c(sc3c2c(=O)n(-c2ccc(CC)cc2)c(=O)n3C)C1
6. COc1cccc(CNCCc2c[nH]c3ccccc23)c1OCc1ccccc1F

Solution:
1: -2.69; 2: -20.6; 3: 12.6; 4: 1.87; 5: 5.44; 6: -35.2

----------
Assignment: determine reported activity change, negative = inhibition for the given molecules.
target: D(1A) dopamine receptor (Homo sapiens) (UniProt P21728); assay: Antagonist of Human D 1 Dopamine Receptor: qHTS; settings: HEK293 TREx D1 cells, calcium flux, dopamine EC80; at 10 µM; hits give low values; further: on the % scale 0 is the no-effect control and ±100 the full control effect
Out of some 360,000 compounds screened, about 11,000 (3.1%) were called active. The sample holds actives, similar compounds and a random draw of the others, so the mix is not that of the screen.
One number for each entry, in %.

Some solved entries appear below for comparison.
{"Molecule": "CCOC(=O)N1CCc2c(sc(NCc3cccc(F)c3)c2C(=O)Nc2ccccc2OCC)C1", "Assay Target": "D(1A) dopamine receptor (Homo sapiens) (UniProt P21728)", "Observed Result": -17.6}
{"Molecule": "O=S(=O)(c1ccc(Br)cc1)c1nnn2c1nc(N1CCOCC1)c1sccc12", "Assay Target": "D(1A) dopamine receptor (Homo sapiens) (UniProt P21728)", "Observed Result": 0.25}
{"Molecule": "Cc1ccc(N(C)C(=O)C2CCN(S(=O)(=O)c3ccc4c(c3)CCCN4C(=O)C3CCC3)CC2)cc1", "Assay Target": "D(1A) dopamine receptor (Homo sapiens) (UniProt P21728)", "Observed Result": 10.1}
{"Molecule": "CCC(=O)N1CCc2cc(S(=O)(=O)NC(C(=O)Nc3ccc(C(C)=O)cc3)C(C)C)ccc21 (stereo not drawn)", "Assay Target": "D(1A) dopamine receptor (Homo sapiens) (UniProt P21728)", "Observed Result": -1.32}
{"Molecule": "COc1cccc(-c2nc(S(=O)(=O)c3ccc(C)cc3)c(NCc3ccccc3)o2)c1", "Assay Target": "D(1A) dopamine receptor (Homo sapiens) (UniProt P21728)", "Observed Result": 24.7}

Give measured activity change, negative = inhibition for every item shown.
1. COc1ccc(NC(=O)C2CCN(S(=O)(=O)c3ccc4[nH]c(=O)oc4c3)CC2)c(OC)c1
2. NC(=O)c1ccc(NC(=O)COC(=O)c2c3c(nc4ccccc24)/C(=C\c2ccc4c(c2)OCO4)CCC3)cc1
3. CCN(C(=O)CSc1nnc(-c2ccncc2)o1)c1ccccc1
4. Cc1ccc(NS(=O)(=O)c2ccc(C(C)(C)C)cc2)cn1
5. CCCN1CCN(CCCNC(=O)c2ccc3nc(Cc4ccccc4)oc3c2)CC1
6. CCOC(=O)C1=C(CN2CCc3ccccc32)NC(=O)NC1c1ccc(Cl)cc1 (stereo not drawn)

Solution:
1.07
-7.23
-3.41
-7.23
-1.19
19.3

The reported measurements were obtained from PubChem BioAssay AID504652.
